Entry source: patent US9296741B2

- target.or.test.system: human BRD4 first bromodomain (BDI_K57-E168) (Homo sapiens (Human), UniProt O60885)
- experiment.description: TR-FRET bromodomain binding assay, BRD4 first bromodomain
measured.property: Ki (nM)

Solved entries (count: 10):
Cc1ncccc1Oc1ccc(S(C)(=O)=O)cc1-c1cn(C)c(=O)c2[nH]ccc12 ... 22.5
CCS(=O)(=O)Nc1ccc(OC2CCC(F)(F)CC2)c(-c2cn(C)c(=O)c3[nH]ccc23)c1 ... 1.2
Cn1cc(-c2cc(NS(=O)(=O)CC(F)(F)F)ccc2Oc2ccccc2)c2cc[nH]c2c1=O ... 15
Cc1ccc(F)c(Oc2ccc(S(C)(=O)=O)cc2-c2cn(C)c(=O)c3[nH]ccc23)c1 ... 10.1
Cn1cc(-c2cc(S(N)(=O)=O)cnc2Oc2ccc(F)cc2F)c2cc[nH]c2c1=O ... 36.5
Cn1cc(-c2cc(S(C)(=O)=O)ccc2Oc2ccc3ncccc3c2)c2cc[nH]c2c1=O ... 11.1
Cn1cc(-c2cc(S(C)(=O)=O)ccc2Oc2ccc3ccncc3c2)c2cc[nH]c2c1=O ... 13.3
Cn1cc(-c2cc(NS(=O)(=O)CCN3CCOCC3)ccc2Oc2ccc(F)cc2F)c2cc[nH]c2c1=O ... 27.9
CN1CCCC1CCOc1ccc(S(C)(=O)=O)cc1-c1cn(C)c(=O)c2[nH]ccc12 (stereo not shown) ... 264
Cn1nc(-c2cc(N)ccc2Oc2ccc(F)cc2F)c2cc[nH]c2c1=O ... 205

I = CNS(=O)(=O)Nc1ccc(Oc2c(F)cc(F)cc2F)c(-c2cn(C)c(=O)c3[nH]ccc23)c1
II = CC(=O)Nc1ccc(Oc2ccc(F)cc2F)c(-c2cn(C)c(=O)c3[nH]ccc23)c1
III = Cc1ccc(F)cc1Oc1ccc(S(C)(=O)=O)cc1-c1cn(C)c(=O)c2[nH]ccc12
q: Order the records by Ki, with each subsequent value no larger than the one before. Could you list the labels in the order requested?
a: III, II, I
